system: K562; test: NCI tumour cell line growth inhibition, 48 h
Calls of active or inactive are those of the source. Rule as the data show it: active = GI50 up to about 1.1 µM and inactive = higher.
Choose the fitting class; nothing outside active, inactive is accepted.

Use these answered entries as a reference point.
CSc1ccc(C=C2N=C(c3ccccc3)N(c3cc(C(=O)c4ccccc4)ccc3N3C(=O)/C(=C/c4ccc(SC)cc4)N=C3c3ccccc3)C2=O)cc1    inactive
N#C/C(c1nc2ccccc2[nH]1)=c1\s/c(=C/c2ccc(Cl)cc2)c(=O)n1-c1ccccc1    inactive
C[C@@]12C[C@@H](c3ccccc3O1)N1CCCSC1=N2    inactive
CC(=O)OCC1OC(n2nc(Cc3ccccc3)c(=S)[nH]c2=S)C(OC(C)=O)C(OC(C)=O)C1OC(C)=O (configuration not stated)    inactive
COC(=O)[C@]1(C)[C@H]2C[C@H]3O[C@H]4[C@H](O)[C@@H](O)OC(CC(O)C(C5=CC(=O)OC5)C(C5=CC(=O)OC5)C(O)CC56CCCCC7[C@@H](C)[C@H](C[C@H]8[C@](C)(C(=O)OC)[C@H](O)CC[C@]78C)O[C@H]([C@@H](O)[C@H](O)O5)[C@H]6O)(CCCCC([C@@H]3C)[C@]2(C)CC[C@@H]1O)[C@H]4O (some centres not stated)    active

Field: outcome | Entry: COc1ccc(CC(C)N)cc1 (configuration not stated)
inactive

Which outcome was entered for the molecule Cn1c2ccccc2c2c(=O)[nH]c(=O)[nH]c21 in this test?
inactive

* * *

Collected GI50 values appear next to each entry.
system: XF498; assay: NCI tumour cell line growth inhibition, 48 h
Activity calls are given as the source filed them. Cut-off read from the data, not from the text of the source: active = GI50 up to about 1.1 µM and inactive = higher.

O=C(CCc1nnc(S)[nH]1)NC12CC3CC(CC(C3)C1)C2    > 100 µM (inactive)
O=C(Nc1nnc(S)[nH]1)C(=O)C(c1cnc2ccc([N+](=O)[O-])cc2n1)[N+](=O)[O-] (stereo not drawn)    > 100 µM (inactive)

We next turn to a different compound, shown below.
Could you please provide reported GI50 for CCOC(=O)/N=c1\ss/c(=N\C(=S)N(C)C)n1-c1ccccc1 ? Thanks!
28.8 µM (inactive)

* * *

tested on: OVCAR-8; test: NCI tumour cell line growth inhibition, 48 h
Activity calls are given as the source filed them. Cut-off read from the data, not from the text of the source: active = GI50 up to about 1.1 µM and inactive = higher.
The reply should be one of these categories: yes for active, no for inactive

C/C(CCOC1CCCCO1)=C(\C)[Si](C)(C)C (stereo not drawn)    no

Short answer needed: outcome of this test for NC(=O)N/N=C(\CCC(=O)N(Cc1ccccc1)Cc1ccccc1)CC(=O)c1ccc(F)cc1 ?
no

Call for entry Ic1ccc2c(c1)N(c1ccccc1)c1cc([N-]c3ccc4nc5ccc(I)cc5[n+](-c5ccccc5)c4c3)ccc1N2 :
no

Please state the recorded outcome for this compound: CCCCCCCCCC(=O)OCC1OC(n2cc(F)c(=O)[nH]c2=O)C(NC(=O)OCc2ccccc2)C(OC(=O)CCCCCCCCC)C1O (stereo not drawn)
no

Record lookup: outcome of this test for COc1cc(CC2CCc3nc(N)nc(N)c3C2)cc(OC)c1OC (stereo not drawn) ?
no

Lab log entry: COc1cc(/C=C/C(=O)O)ccc1OS(=O)(=O)O — outcome as called in the assay?
no

Field: outcome | Entry: COc1cc(/C=C/c2ccc(OC)c(O)c2)cc(OC)c1
no

Returns: the outcome recorded for COC(=O)c1nc(N)nc(O)c1-c1ccc(Cl)cc1 in this assay.
no
